These entries and their values trace back to PubChem BioAssay (NCI).

System: HCT-15 colon
Assay: NCI tumour cell line growth inhibition, 48 h
The entries below come with measured TGI values attached.

Reference set, count: 3
Compound: CC(OC(C)(C)C)[C@H](NC(=O)OCC(Cl)(Cl)Cl)C(=O)O (some centres not stated)
Measured Property: TGI
Reported Value: > 100 µM
//
Compound: CC12CC(c3ccccc3O1)C(C(=O)Nc1ccc(Cl)cc1Cl)C(=O)N2 (configuration not stated)
Measured Property: TGI
Reported Value: > 100 µM
//
Compound: CCOC1OC(=O)c2cc3ccc4c(c3c(-c3ccc5c(c3)OCO5)c21)OCO4 (configuration not stated)
Measured Property: TGI
Reported Value: > 100 µM

Provide TGI value for the following compound: O=C(O)CCC(NC(=O)c1ccc(Nc2nc3cc(C(F)(F)F)ccc3nc2-c2ccccc2)cc1)C(=O)O (configuration not stated)
> 100 µM

Provide TGI value for the following compound: O=[N+]([O-])/C(C(Cl)=C(Cl)Cl)=C(/Cl)Sc1ccccc1
4.85 µM

Provide TGI value for the following compound: CSc1nc(Nc2cccc(C(F)(F)F)c2)c2c(N)nn(C)c2n1
> 100 µM

Provide TGI value for the following compound: O=C1C=CC(=O)c2cc3cc(CBr)ccc3cc21
17.3 µM

Provide TGI value for the following compound: CCCNC(=S)NNC(=O)CSc1nc(-c2ccccc2)c(-c2ccccc2)[nH]1
> 100 µM

Provide TGI value for the following compound: Nc1ncnc2c1ncn2[C@@H]1C[C@@H]1CO
> 100 µM

Provide TGI value for the following compound: O=C1C(c2c(O)[nH]c3ccc(F)cc23)=Nc2ccccc21
> 100 µM

Provide TGI value for the following compound: CCOC(=O)c1nnc2c(C(=O)OCC)c3ccccc3n2c1N
> 100 µM

Provide TGI value for the following compound: Nc1c(C(=O)Nc2ccncc2)sc2nc3c(cc12)CCCCCCCC3
1.8 µM

Provide TGI value for the following compound: CC(C)(C)OC(=O)[C@H]1CCC(=S)N1Cc1ccccc1
> 100 µM

Provide TGI value for the following compound: COc1cccc2c1C(=O)c1c(O)c3c(c(O)c1C2=O)C[C@](O)(C(=O)CO)C[C@H]3O[C@@H]1C[C@@H](NC(=O)CCCCCN(C)C2(c3ccc(F)cc3)CC3CCC2C3)[C@H](O)[C@@H](C)O1 (some centres not stated)
9.11 µM

Provide TGI value for the following compound: N#CCCN(C(=O)Nc1ccccc1)[C@H]1CCCC[C@@H]1N(C(=O)Nc1ccccc1)c1ccccc1
> 100 µM

Provide TGI value for the following compound: COC(=O)C1=C(C(=O)NNc2ccccc2)N(c2cccnc2Cl)C(c2ccccc2)=CC1c1ccccc1 (configuration not stated)
> 100 µM

Provide TGI value for the following compound: COc1ccc(/C=C2\N=C(SC)N(CN3CCOCC3)C2=O)cc1
> 100 µM

Provide TGI value for the following compound: Cn1c(=O)c2c(nc(Cc3ccccc3)n2CC(=O)O)n(C)c1=O
> 100 µM

Provide TGI value for the following compound: O=C1/C(=C/c2ccccc2S)N=C(c2ccccc2)N1c1nc2c(Cl)cc(Cl)cc2s1
> 100 µM

Provide TGI value for the following compound: COc1ccc2[nH]cc(C3(c4c[nH]c5ccc(OC)cc45)C(=O)Nc4ccc(F)cc43)c2c1
20.2 µM

Provide TGI value for the following compound: O=C(CCc1n[nH]c(=S)o1)Nc1ccccc1C(F)(F)F
38.8 µM

Provide TGI value for the following compound: CN(CC(=O)O)c1ncc2c(n1)CCCC2
> 100 µM
